- Tested System: human C5 protein (human, UniProt P01031 19-673; P01031 678-1676)
- Assay Explanation: cell-based or functional assay
Positions of bridges follow the written chain, without caps; N, C: chain ends. Non-standard residues stand in square brackets, D forms with d. Trp(7-aza) = N[C@@H](Cc1c[nH]c2ncccc12)C(=O)O; pXylyl = bridging moiety between residues; Phg = N[C@H](C(=O)O)c1ccccc1; Tle = CC(C)(C)[C@H](N)C(=O)O; NMeS = CN[C@@H](CO)C(=O)O; Nva = CCC[C@H](N)C(=O)O; Sar = CNCC(=O)O
Observable: Avg. IC50, human hemolysis assay (nM)
Only the number, expressed in nM, is required.

Binder	Avg. IC50, human hemolysis assay, nM
Ac-[Nva]C[Phg]T[Trp(7-aza)]EYPHC[Nva]-NH2 (linker 2-10 via pXylyl) [R3065]	394

Note: attention shifts to another entry.
Task item: Note down Avg. IC50, human hemolysis assay recorded for Ac-YEN[Tle]Y[Trp(7-aza)]EY[Sar][Nva][NMeS]-NH2 (SMILES CCC[C@H](NC(=O)CN(C)C(=O)[C@H](Cc1ccc(O)cc1)NC(=O)[C@H](CCC(=O)O)NC(=O)[C@H](Cc1c[nH]c2ncccc12)NC(=O)[C@H](Cc1ccc(O)cc1)NC(=O)[C@@H](NC(=O)[C@H](CC(N)=O)NC(=O)[C@H](CCC(=O)O)NC(=O)[C@H](Cc1ccc(O)cc1)NC(C)=O)C(C)(C)C)C(=O)N(C)[C@@H](CO)C(N)=O) [R3006]
Reply: 267
